System: FLR3-1 HCV subgenomic replicon cells (genotype 1b; Con-1)
Assay: Luciferase assay of HCV replication in HCV subgenomic replicon cells
Format: cell-based
Settings: Hepatitis C virus, 72 h, Agent added: Sphingosine-1-phosphate 2.5 µM, FLR3-1 cells, read-out: IC50 of myriocin
experimental.readout: IC50

Any idea what IC50 was measured for `CCCCCCC(=O)CCCCCC/C=C/C[C@@H](O)[C@H](O)[C@@](N)(CO)C(=O)O` ?
> 1000 nM
